- Tested on: Plasmodium falciparum
- test.protocol: GSK_TCMDC: Inhibition of Plasmodium falciparum Dd2 in whole red blood cells, using parasite LDH activity as an index of growth. Test compounds present at 2uM
- Format: functional
The threshold is 90%. Values of Inhibition beneath it are tagged TRUE; values meeting or exceeding it are tagged FALSE.

compound | system.tested | label
COc1ccc2nccc([C@@H](O)CN3CCC(NC(=O)c4ccc(CN5CCN(c6cccc(C)c6)CC5C)cc4)CC3)c2c1 (some centres undefined) | Plasmodium falciparum | TRUE
CCOc1cc(Br)c(C(C)NC(=O)c2ccccc2)cc1OCC (centres undefined) | Plasmodium falciparum | TRUE
COc1ccccc1CCNc1ncc(F)c(N[C@@H](Cc2ccccc2)C(=O)NCCc2ccccc2)n1.O=C(O)C(F)(F)F | Plasmodium falciparum | TRUE
CCC(C(=O)Nc1ccccc1)n1nc(-c2ccc(C)c(S(=O)(=O)N3CCCCC3)c2)ccc1=O (centres undefined) | Plasmodium falciparum | TRUE
O=C(/C=C/c1ccc(Cl)c(Cl)c1)NCCCCCN1CCCC(CNS(=O)(=O)c2cccc(C(F)(F)F)c2)C1 (centres undefined) | Plasmodium falciparum | TRUE
COc1ccc(C(C(=O)NC2CCN(C[C@H](O)c3ccnc4ccc(OC)cc34)CC2)N2CCN(c3ccc(F)cc3)CC2)cc1 (some centres undefined) | Plasmodium falciparum | TRUE
CN1CCN(c2ccnc3ccc(NC(=O)Nc4ccccc4Br)cc23)CC1.Cl | Plasmodium falciparum | FALSE
CC(C)c1sc(N2CCCCC2)nc1C(=O)Nc1ccc(F)cc1C(F)(F)F.O=C(O)C(F)(F)F | Plasmodium falciparum | FALSE
CCN(CC)CCCC(C)Nc1c(-c2ccc(Br)cc2)cnc2ccccc12 (centres undefined) | Plasmodium falciparum | FALSE
COc1ccc(NC(=O)CCNc2cc(C)nc(NCCc3ccccc3)n2)cc1.O=C(O)C(F)(F)F | Plasmodium falciparum | TRUE
Clc1ccc2c(NN=Cc3ccccc3)ccnc2c1 | Plasmodium falciparum | FALSE
O=C(O)c1ccc2c(c1)N(C(=O)CNCc1ccc(F)cc1)CC(=O)N2CCCc1ccccc1 | Plasmodium falciparum | TRUE
Cc1ccc(CCOCCCCCNCC(O)c2cc(Cl)c(N)c(Cl)c2)cc1 (centres undefined) | Plasmodium falciparum | FALSE
O=C(NCCCCCN1CCCN(C(=O)Nc2ccc(Cl)c(C(F)(F)F)c2)CC1)C1CC1c1ccc(Cl)c(Cl)c1 (centres undefined) | Plasmodium falciparum | TRUE
O=C(Nc1ccc(OC2CCN(Cc3ccsc3)C2)c(Cl)c1)c1ccc2ncccc2c1.O=C(O)C(F)(F)F (centres undefined) | Plasmodium falciparum | TRUE
COc1cc2nc(NCCc3cccc(Cl)c3)nc(NCc3ccccc3)c2cc1OC | Plasmodium falciparum | FALSE
Cc1ccc2cc(NCCCCCCCCON3C(N)=NC(N)=NC34CCCCC4)ccc2n1 | Plasmodium falciparum | TRUE
O=C(Nc1cccc(-c2ccc(-c3nc4cc(C(F)(F)F)ccc4[nH]3)cc2)c1)c1ccoc1 | Plasmodium falciparum | TRUE
CC(C)CC(=O)N(Cc1ccc(-c2ccc(CNC3Cc4ccccc4C3)cc2)cc1)C1CCNCC1.O=C(O)C(F)(F)F | Plasmodium falciparum | TRUE
